Attribution: patent US12122778B2

Biological target: PKR(G332S) (Homo sapiens, UniProt P30613, G332S)
Sequence (P30613 whole entry G332S): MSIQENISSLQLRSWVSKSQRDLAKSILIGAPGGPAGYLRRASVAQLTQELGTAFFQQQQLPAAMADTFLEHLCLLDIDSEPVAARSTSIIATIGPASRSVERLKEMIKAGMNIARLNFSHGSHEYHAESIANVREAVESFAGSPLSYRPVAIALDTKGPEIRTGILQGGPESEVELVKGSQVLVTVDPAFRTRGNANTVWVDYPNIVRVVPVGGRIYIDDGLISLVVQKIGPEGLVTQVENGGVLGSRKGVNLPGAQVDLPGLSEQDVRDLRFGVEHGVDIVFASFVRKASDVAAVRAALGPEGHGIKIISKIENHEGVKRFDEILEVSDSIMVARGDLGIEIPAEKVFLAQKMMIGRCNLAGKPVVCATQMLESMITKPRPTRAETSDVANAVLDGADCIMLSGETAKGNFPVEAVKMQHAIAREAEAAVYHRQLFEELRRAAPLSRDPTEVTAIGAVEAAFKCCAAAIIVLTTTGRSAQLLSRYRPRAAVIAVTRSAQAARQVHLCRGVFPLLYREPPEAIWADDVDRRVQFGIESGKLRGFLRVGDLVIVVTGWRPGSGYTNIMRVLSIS
Experiment: Luminescence Biochemical Assay (Kinase Glo Plus), PKR G332S mutant
Details: with FBP, read-out: AC50 LUM KGP FBP MAX % FOLD mean
OBSERVED PROPERTY: Emax

Below: 4 compounds and their reported Emax.
* O=C([C@@H](O)c1ccc2c(c1)CNCC2)N1CC2=C(C1)CN(S(=O)(=O)c1ccc(OC(F)F)cc1)C2 (single isomer, unassigned) | 75 to 250%
* O=C(OCC1CCOC1)N1CC2=C(C1)CN(S(=O)(=O)c1ccc(OC(F)F)cc1)C2 (stereo not drawn) | 75 to 250%
* O=C(Cc1ccc(F)cc1F)N1CC2=C(C1)CN(S(=O)(=O)c1ccccn1)C2 | 75 to 250%
* Cc1ccc(S(=O)(=O)N2CC3=C(CN(C(=O)[C@H](O)c4ccccc4)C3)C2)cc1F | 75 to 250%

Problem: I'd like to know its Emax. The compound in question is O=C(Cc1ncccn1)N1CC2=C(C1)CN(S(=O)(=O)c1ccc(OC(F)F)cc1)C2
Result: 75 to 250%

Problem: Try O=C([C@H](O)c1ccc2c(c1)CNCC2)N1CC2=C(C1)CN(S(=O)(=O)c1ccc(OC(F)F)cc1)C2 (single isomer, unassigned) next.
Result: 75 to 250%

* * *

Biological target: PKR(wt) (Homo sapiens, UniProt P30613)
Sequence (P30613 whole entry): as the sequence (P30613 whole entry G332S) above, with S332G counted along it
Experiment: Luminescence Biochemical Assay (Kinase Glo Plus), wild type PKR
Settings: without FBP, read-out: AC50 LUM KGP woFBP AC50 μM gmean
Protocol: In some embodiments, a PKR Activating Compound can have: (1) an AC50 value of less than 0.1 μM (e.g., compounds with AC50 values of “+++” in Table 13), 0.1-1.0 μM (e.g., compounds with AC50 values of “++” in Table 13), or 1.01-40 μM (e.g., compounds with AC50 values of “+” in Table 13); (2) a MAX % Fold of 75%-250%, 250-500%, or 75%-500%; and/or (3) a % Fold@1.54 μM of 75%-250%, 250-500%, or 75%-500%. […]
OBSERVED PROPERTY: AC50

Below: 6 compounds and their reported AC50.
• O=C(CCC(F)F)N1CC2=C(C1)CN(S(=O)(=O)c1ccc3occc3c1)C2 = 0.1 to 1 µM
• Cc1nn(C)c(Cl)c1S(=O)(=O)N1CC2=C(CN(C(=O)[C@H](O)c3ccccc3)C2)C1 = 1 to 40 µM
• O=C([C@@H](O)c1ccc2c(c1)CNCC2)N1CC2=C(C1)CN(S(=O)(=O)c1ccc(OC(F)F)cc1)C2 (single isomer, unassigned) = 1 to 40 µM
• O=C(Cc1ccc(F)cc1F)N1CC2=C(C1)CN(S(=O)(=O)c1ccccn1)C2 = 1 to 40 µM
• O=C(Cc1ccccn1)N1CC2=C(C1)CN(S(=O)(=O)c1ccc(OC(F)F)cc1)C2 = 0.1 to 1 µM
• NS(=O)(=O)c1ccc(S(=O)(=O)N2CC3=C(CN(C(=O)[C@H](O)c4ccccc4)C3)C2)cc1 = 1 to 40 µM

Next up:
Problem: Lab note: need AC50 for Cc1ccc(C(C)NC(=O)N2CC3=C(C2)CN(S(=O)(=O)c2ccc(OC(F)F)cc2)C3)o1 (stereo not shown) on PKR(wt) (Homo sapiens, UniProt P30613), anyone have it?
Result: 1 to 40 µM

* * *

Target: PKR(R510Q) (Homo sapiens, UniProt P30613, R510Q)
Sequence (P30613 whole entry R510Q): as the sequence (P30613 whole entry G332S) above, with S332G, R510Q counted along it
Experiment: Luminescence Biochemical Assay (Kinase Glo Plus), PKR R510Q mutant
Settings: without FBP, read-out: AC50 LUM KGP woFBP AC50 μM gmean
OBSERVED PROPERTY: AC50

Below: 5 compounds and their reported AC50.
- O=C([C@H](O)c1ccc(F)cc1)N1CC2=C(C1)CN(S(=O)(=O)c1ccc(OC(F)F)cc1)C2: ≤ 0.1 µM
- O=C(NCc1ccccc1F)N1CC2=C(C1)CN(S(=O)(=O)c1ccc3ncsc3c1)C2: ≤ 0.1 µM
- O=C(C(O)c1cccnc1)N1CC2=C(C1)CN(S(=O)(=O)c1ccc(OC(F)F)cc1)C2 (stereo not shown): ≤ 0.1 µM
- O=C(Cc1ccc(F)cc1F)N1CC2=C(C1)CN(S(=O)(=O)c1ccccn1)C2: 1 to 40 µM
- COc1ccccc1CNC(=O)N1CC2=C(C1)CN(S(=O)(=O)c1ccc3ncsc3c1)C2: 0.1 to 1 µM

Problem: I'd like to know its AC50. The compound in question is O=C([C@H](O)c1ccc2c(c1)NCCO2)N1CC2=C(C1)CN(S(=O)(=O)c1ccc(OC(F)F)cc1)C2 (single isomer, unassigned)
Result: 1 to 40 µM

Problem: Try O=C(NCc1ccc(F)cc1)N1CC2=C(C1)CN(S(=O)(=O)c1ccc3occc3c1)C2 next.
Result: 0.1 to 1 µM

* * *

Molecular target: PKR(R510Q) (Homo sapiens, UniProt P30613, R510Q)
Assay: Luminescence Biochemical Assay (Kinase Glo Plus), PKR R510Q mutant
Settings: without FBP, read-out: AC50 LUM KGP woFBP AC50 μM gmean
This listing pairs molecules with measured AC50.

Problem: I'd like to know its AC50. The molecule in question is CC(C)Oc1ccc(CNC(=O)N2CC3=C(C2)CN(S(=O)(=O)c2ccc4ncsc4c2)C3)cc1
Result: 1 to 40 µM

Problem: Try O=C(NCc1cccc(F)c1)N1CC2=C(C1)CN(S(=O)(=O)c1ccc(OC(F)F)cc1)C2 next.
Result: 1 to 40 µM

Problem: Try O=C([C@H]1CCCO1)N1CC2=C(C1)CN(S(=O)(=O)c1cccnc1)C2 next.
Result: 1 to 40 µM

Problem: Try O=C(Cc1ccc[nH]1)N1CC2=C(C1)CN(S(=O)(=O)c1ccc(OC(F)F)cc1)C2 next.
Result: 1 to 40 µM

Problem: Try O=C([C@H](O)c1ccccc1)N1CC2=C(C1)CN(S(=O)(=O)c1ccc(F)c(F)c1)C2 next.
Result: 0.1 to 1 µM

* * *

Target: PKR(wt) (Homo sapiens, UniProt P30613)
Assay: Luminescence Biochemical Assay (Kinase Glo Plus), wild type PKR
Details: without FBP, 1.54 μM compound, read-out: AC50 LUM KGP woFBP % Fold@1.54 μM mean
This listing pairs compounds with measured activation at 1.54 µM.

Below: 3 compounds and their reported activation at 1.54 µM.
* O=C(Cn1cccn1)N1CC2=C(C1)CN(S(=O)(=O)c1ccc(OC(F)F)cc1)C2 | 75 to 250%
* O=C(OCC1CCOC1)N1CC2=C(C1)CN(S(=O)(=O)c1ccc(OC(F)F)cc1)C2 (stereo not drawn) | 75 to 250%
* CC(C)Oc1cccc(CNC(=O)N2CC3=C(C2)CN(S(=O)(=O)c2ccc4ncsc4c2)C3)c1 | 75 to 250%

Next up:
Problem: I'd like to know its activation at 1.54 µM. The compound in question is Cc1nc(C)c(C(=O)N2CC3=C(C2)CN(S(=O)(=O)c2ccc4occc4c2)C3)s1
Result: 75 to 250%

* * *

Target: PKR(R510Q) (Homo sapiens, UniProt P30613, R510Q)
Assay: Luminescence Biochemical Assay (Kinase Glo Plus), PKR R510Q mutant
Details: without FBP, read-out: AC50 LUM KGP woFBP MAX % FOLD mean
This listing pairs compounds with measured Emax.

Below: 6 compounds and their reported Emax.
- O=C([C@H]1CCCO1)N1CC2=C(C1)CN(S(=O)(=O)c1cccnc1)C2 [Example 18-59]: 75 to 250%
- O=C(Cn1cnnn1)N1CC2=C(C1)CN(S(=O)(=O)c1ccc(OC(F)F)cc1)C2 [Example 18-19]: 250 to 500%
- O=C(NCc1ccc(F)cc1)N1CC2=C(C1)CN(S(=O)(=O)c1ccc3ncsc3c1)C2 [Example 21-19]: 250 to 500%
- COc1cccc(CNC(=O)N2CC3=C(C2)CN(S(=O)(=O)c2ccc4ncsc4c2)C3)c1 [Example 21-17]: 75 to 250%
- COc1cccc(CNC(=O)N2CC3=C(C2)CN(S(=O)(=O)c2ccc(OC(F)F)cc2)C3)c1 [Example 21-11]: 250 to 500%
- Cc1nc(CC(=O)N2CC3=C(C2)CN(S(=O)(=O)c2ccc(OC(F)F)cc2)C3)cs1 [Example 18-20]: 250 to 500%

Problem: I'd like to know its Emax. The compound in question is O=C(N1CC2=C(C1)CN(S(=O)(=O)c1ccc(OC(F)F)cc1)C2)C(F)(F)c1ccccc1 [Example 18-25]
Result: 250 to 500%

Problem: Try CC(C)Oc1cccc(CNC(=O)N2CC3=C(C2)CN(S(=O)(=O)c2ccc4ncsc4c2)C3)c1 [Example 21-21] next.
Result: 75 to 250%
